# System: HT29 colon
# Assay info: NCI tumour cell line growth inhibition, 48 h
Where a SMILES comes first, the peptide text is derived from it. The star is where a group is joined. Boc = CC(C)(C)OC(=O)*
Observed property: TGI

# example entries with known answers
| Compound | TGI |
| --- | --- |
| COC(=O)/C=C\n1nc(Br)c(=O)[nH]c1=O | > 100 µM |
| CC(C)(C)c1cc(OCc2nnc3sc(Cc4ccccc4)nn23)c(Cl)cc1OCc1nnc2sc(Cc3ccccc3)nn12 | 57.8 µM |
| COc1cc(F)c(F)cc1C(=O)c1cnc(NC2CCN(S(C)(=O)=O)CC2)nc1N | > 25 µM |
| CCC(C)(O)c1cn(-c2ccc(Cl)cc2)nn1 (configuration not stated) | > 100 µM |
| Fc1ccc2c(c1)C1=C(CCC2)C(c2ccc(Cl)cc2)NC(=S)N1 (configuration not stated) | > 100 µM |

# input compound: COC(=O)C(Cc1c[nH]c2ccccc12)NC(=O)C(Cc1c[nH]c2ccccc12)NC(=O)C(Cc1c[nH]c2ccccc12)NC(=O)C(Cc1c[nH]c2ccccc12)NC(=O)C(Cc1c[nH]c2ccccc12)NC(=O)C(Cc1c[nH]c2ccccc12)NC(=O)C(Cc1c[nH]c2ccccc12)NC(=O)OC(C)(C)C (configuration not stated) (Boc-WWWWWWW-OMe; configuration not given here) ; wanted: its TGI
> 100 µM

# input compound: O=C(O)Cn1c2c(c3c1-c1ccccc1C3=O)C(=O)CCC2 ; wanted: its TGI
> 100 µM

# input compound: O=c1cc(-c2ccccc2)[nH]c2c1CCCC2 ; wanted: its TGI
> 100 µM

# input compound: O=C1CCCCC/C1=C\c1cccc(F)c1 ; wanted: its TGI
> 100 µM

# input compound: CCCC(O)c1cn(-c2cccc(S(=O)(=O)O)c2)nn1 (configuration not stated) ; wanted: its TGI
> 100 µM

# input compound: CSc1nnc(SCc2nn3c(=O)cc(C)nc3s2)s1 ; wanted: its TGI
> 100 µM

# input compound: O=c1[nH]nc(-c2ccccc2)c2[nH]c3c(c12)Cc1ccccc1-3 ; wanted: its TGI
> 70 µM

# input compound: CCCC1=C(OC)C(=O)c2c(C)cc(Cl)nc2C1=O ; wanted: its TGI
8.45 µM

###

# System: SN12C renal
# Assay info: NCI tumour cell line growth inhibition, 48 h
Here the recorded TGI is given for each entry.

# example entries with known answers
| Compound | Target or test system | TGI |
| --- | --- | --- |
| Cc1cc(=O)[nH]c(N/N=C/c2ccccc2O)n1 | SN12C renal | > 100 µM |
| O=C1Nc2cccc(Cl)c2/C1=C\c1c(-c2ccccc2)nc2n1CCS2 | SN12C renal | 31.7 µM |
| CN1CCN(CCCOc2ccc3nc(Nc4ccc(F)c(F)c4)ccc3c2)CC1 | SN12C renal | 11.8 µM |
| O=[N+]([O-])c1cc(/C=N\NS(=O)(=O)c2ccc(Cl)cc2)c(O)c([N+](=O)[O-])c1 | SN12C renal | 87.4 µM |

Can you look up TGI on SN12C renal for COc1cc(C)cc(C(=O)/C=C/c2ccccc2)c1O ?
34 µM

Can you look up TGI on SN12C renal for COc1c(C)c(C/C=C(\C)CCCC(C)CCCC(C)CCCC(C)C)c(OC)c2ccccc12 (centres undefined) ?
> 100 µM

Can you look up TGI on SN12C renal for CCCC1=C(OC)C(=O)c2c(C)cc(Cl)nc2C1=O ?
9.62 µM

Can you look up TGI on SN12C renal for O=c1c2ccccc2nc(N/N=C/c2ccc([N+](=O)[O-])cc2)n1-c1ccccc1 ?
> 100 µM

Can you look up TGI on SN12C renal for CC(C)N(C(=O)C12C3C4C5(C(=O)O)C(C1C35I)C42C(=O)O)C(C)C (centres undefined) ?
> 100 µM

Can you look up TGI on SN12C renal for O=c1cc(N2CCOCC2)n2c(ccc3ccccc32)n1 ?
> 100 µM

Can you look up TGI on SN12C renal for Cc1cc(N2CCCCC2)nc2ccc(Cc3ccc4nc(N5CCCCC5)cc(C)c4c3)cc12 ?
> 100 µM

Can you look up TGI on SN12C renal for CC(C)OP(=O)(OC(C)C)C(C(C)C)N(C)C(N)=NC#N (centres undefined) ?
> 100 µM

Can you look up TGI on SN12C renal for CC1=C(CO)C(=O)O[C@@H]([C@@H](C)[C@H]2CC[C@H]3[C@@H]4C[C@H]5O[C@]56[C@@H](O)C=CC(=O)[C@]6(C)[C@H]4CC[C@]23C)C1 ?
1.78 µM

Can you look up TGI on SN12C renal for CC1=NN(c2ccccc2)C(=O)C12[C@H](c1ccccc1)C2(C#N)C#N (some centres undefined) ?
14.3 µM

Can you look up TGI on SN12C renal for O=Nc1c(-c2c(O)[nH]c3ccc(I)cc23)[nH]c2ccccc12 ?
17.9 µM

Can you look up TGI on SN12C renal for CC(C)C1(NC(=O)C2CC3c4cccc5[nH]cc(c45)CC3N(C)C2)OC2(O)C3CCCN3C(=O)C(Cc3ccccc3)N2C1=O (centres undefined) ?
> 100 µM

###

# Test system: HOP-18 NSCLC
# Assay info: NCI tumour cell line growth inhibition, 48 h
Here the recorded TGI is given for each entry.

# example entries with known answers
| Compound | TGI |
| --- | --- |
| COc1ccc(NC(=O)CC(=O)N/N=C(\C)c2cc3ccccc3oc2=O)cc1 | > 100 µM |
| O=C1c2ccncc2C(=O)c2c(O)ccc(O)c21 | 25.5 µM |

# input compound: O=[N+]([O-])c1cc(/C=N\NS(=O)(=O)c2ccc(Cl)cc2)c(O)c([N+](=O)[O-])c1 ; wanted: its TGI
> 100 µM

# input compound: CCCCCCC(=O)C/C(CCC(=O)N(Cc1ccccc1)Cc1ccccc1)=N\NC(N)=O ; wanted: its TGI
> 100 µM

# input compound: CC(=O)OCC1OC(n2c(=O)[nH]c(=O)c3n[nH]nc32)C(OC(C)=O)C(OC(C)=O)C1OC(C)=O (stereo not given) ; wanted: its TGI
> 100 µM

# input compound: CCCCCCCC(=O)[O-].CCCCCCCC(=O)[O-].N.N.N.N.[Co+3].[O-][Cl+3]([O-])([O-])[O-] ; wanted: its TGI
> 100 µM

# input compound: Cc1ccccc1-n1c(=S)[nH]c2c(sc(=O)n2-c2ccccc2C)c1=O ; wanted: its TGI
> 100 µM

# input compound: CCCCNS(=O)(=O)c1ccc(-c2ccc3c(c2)-c2ccc(S(=O)(=O)NCCCC)cc2S3(=O)=O)cc1 ; wanted: its TGI
54 µM

# input compound: Cc1cc(=O)[nH]c(NNC(C#N)c2ccccc2O)n1 (stereo not given) ; wanted: its TGI
> 100 µM

# input compound: O=C(c1ccccc1)c1nnn(Cc2ccccc2Cn2nnc(C(=O)c3ccccc3)c2C(=O)c2ccccc2)c1C(=O)c1ccccc1 ; wanted: its TGI
> 100 µM

###

# System: DMS 273 small cell lung
# Assay info: NCI tumour cell line growth inhibition, 48 h
Here the recorded TGI is given for each entry.

# example entries with known answers
| Compound | Target or test system | TGI |
| --- | --- | --- |
| O=[N+]([O-])c1cc(/C=N\NS(=O)(=O)c2ccc(Cl)cc2)c(O)c([N+](=O)[O-])c1 | DMS 273 small cell lung | 73.3 µM |
| O=c1c2ccccc2oc2ccccc12 (tested in a mixture with another compound) | DMS 273 small cell lung | > 100 µM |

# input compound: O=C1CC(C2(O)C(=O)Nc3ccc([N+](=O)[O-])cc32)c2ccccc21 (stereo not drawn) ; wanted: its TGI
41.4 µM

# input compound: COc1ccc(-c2cc3ccccc3[nH]c2=O)cc1OC ; wanted: its TGI
> 100 µM

# input compound: Cc1ccccc1-n1c(=S)[nH]c2c(sc(=O)n2-c2ccccc2C)c1=O ; wanted: its TGI
> 100 µM

###

Here the recorded TGI is given for each entry.
# System: MDA-MB-435
# Assay info: NCI tumour cell line growth inhibition, 48 h
Where a SMILES comes first, the peptide text is derived from it. The star is where a group is joined. Boc = CC(C)(C)OC(=O)*

| Compound | Target or test system | TGI |
| --- | --- | --- |
| c1ccc2c(Nc3ncco3)cccc2c1 | MDA-MB-435 | > 10 µM |
| COc1ccc(OC)c2c(C)ccnc12 | MDA-MB-435 | > 100 µM |

# input for lookup
# input compound: COC(=O)C(Cc1c[nH]c2ccccc12)NC(=O)C(Cc1c[nH]c2ccccc12)NC(=O)C(Cc1c[nH]c2ccccc12)NC(=O)C(Cc1c[nH]c2ccccc12)NC(=O)C(Cc1c[nH]c2ccccc12)NC(=O)C(Cc1c[nH]c2ccccc12)NC(=O)C(Cc1c[nH]c2ccccc12)NC(=O)OC(C)(C)C (stereo not drawn) (Boc-WWWWWWW-OMe; configuration not given here) ; wanted: its TGI
> 100 µM
